Quick list: IC50, cell killing of U87MG-hEGFRvIII cells (CellTiter-Glo) per entry.
target: human EGFRvIII protein on the surface of U87MG-hEGFRvIII cells (human, UniProt P00533 25-1210); assay: cell-based or functional assay
Observed property: IC50, cell killing of U87MG-hEGFRvIII cells (CellTiter-Glo) (nM)

- Binder: "Murine anti-53D8-MMAF (antibody, V domains shown) VH: QVQLQQSGAELARPGASVKMSCKASGYTFTSYTMHWVKQRPGQGLEWIGYINPSSGYTKYNQIFKDKATLTADKSSSTAYMQLSSLTSEDSAVYYCTRGGGRGFAYWGQGTLVTVSA VL: DILMTQSPSSMSVSLGDTVSITCHASQDINSNIGWLQQKPGKSFKGLIYHGTNLEDGVPSRFSGSGSGADYSLTISSLESEDFADYYCVQYAQFPFTFGSGTKLEIK"
  Measured result: 0.04
- Binder: "Murine anti-64B11-MMAF (antibody, V domains shown) VH: EVQLQQSGAELVKPGASVKLSCTASGFNIKDYYMHWVKQRTEQGLEWIGRIDPEDGETKYAPKFQGKATITADTSSNTAYLQLSNLPSEDTAVYYCGCRTGGFAYWGQGTLVTVSA VL: DILMTQSPSSMSVSLGDTVSITCHASQGINSNIGWLQQKPGKSFKALIYHGTNLEDGVPSRFSGSGSGADYSLTISSLESEDFADYYCVQYAQFPFTFGSGTELEIK"
  Measured result: 0.04
- Binder: "Murine anti-63A10-MMAF (antibody, V domains shown) VH: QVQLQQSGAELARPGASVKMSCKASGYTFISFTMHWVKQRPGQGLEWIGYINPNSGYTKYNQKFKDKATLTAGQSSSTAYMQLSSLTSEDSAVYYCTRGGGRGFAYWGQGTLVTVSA VL: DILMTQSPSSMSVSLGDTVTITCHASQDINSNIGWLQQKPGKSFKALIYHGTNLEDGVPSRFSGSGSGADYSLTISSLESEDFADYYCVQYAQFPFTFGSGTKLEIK"
  Measured result: 0.01
